Ref: paper PMC13376213

Target: USP20 DUSP2 domain (human) (UniProt Q9Y2K6)
Sequence (Q9Y2K6 whole entry, the tested form may be a part): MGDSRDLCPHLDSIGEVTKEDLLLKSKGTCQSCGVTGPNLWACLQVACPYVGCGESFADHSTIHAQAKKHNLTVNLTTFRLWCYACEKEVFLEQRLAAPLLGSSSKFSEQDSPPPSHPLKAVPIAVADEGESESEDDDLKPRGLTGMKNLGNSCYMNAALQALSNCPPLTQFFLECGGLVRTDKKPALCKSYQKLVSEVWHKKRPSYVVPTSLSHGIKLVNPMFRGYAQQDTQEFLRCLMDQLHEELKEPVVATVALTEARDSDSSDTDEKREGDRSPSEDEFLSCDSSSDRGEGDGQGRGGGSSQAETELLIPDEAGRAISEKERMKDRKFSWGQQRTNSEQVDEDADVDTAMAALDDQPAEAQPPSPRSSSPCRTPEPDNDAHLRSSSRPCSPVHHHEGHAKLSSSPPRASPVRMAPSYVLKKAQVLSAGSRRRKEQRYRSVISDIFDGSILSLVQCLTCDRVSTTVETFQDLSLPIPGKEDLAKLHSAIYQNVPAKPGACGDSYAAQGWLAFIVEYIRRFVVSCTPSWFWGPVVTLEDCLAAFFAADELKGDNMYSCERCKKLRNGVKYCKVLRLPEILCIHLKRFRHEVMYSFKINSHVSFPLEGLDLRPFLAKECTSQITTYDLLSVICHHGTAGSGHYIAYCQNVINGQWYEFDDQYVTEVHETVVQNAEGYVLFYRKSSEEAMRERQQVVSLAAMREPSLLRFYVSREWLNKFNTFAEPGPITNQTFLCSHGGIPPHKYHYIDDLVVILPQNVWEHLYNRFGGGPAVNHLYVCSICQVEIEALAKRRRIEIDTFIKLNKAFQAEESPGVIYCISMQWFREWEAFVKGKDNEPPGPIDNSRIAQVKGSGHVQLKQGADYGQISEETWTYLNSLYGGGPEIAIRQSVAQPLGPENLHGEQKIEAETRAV
Assay: fluorescence polarisation; displacement: serial dilution of the unlabelled peptide against the domain (at two-fold the KD of the FITC-labelled peptide) in complex with 10 nM FITC-labelled peptide; 50 mM phosphate buffer pH 7.4; room temperature; three technical replicates; sigmoidal dose-response fit
Readout: Kd (µM)

A. Ac-QLEEELFQLRQGPAGY-NH2 [CCDC88B 947-961 peptide]
B. Ac-SDDDLAWNIAPQGLQ-NH2 [GPR137B 348-362 peptide, unlabelled]
C. Ac-DVVDDFQLQHRHGPGY-NH2 [MFSD2B 395-409 peptide]
D. Ac-PYIPMDGEDFQLSPICPE-NH2 [HIF2A 531-548 peptide]
Query block: Hello, I need these entries ordered by Kd, highest reading first. Thanks! # the answer lists labels in the order requested
Result block: D, C, A, B
(D: 235 µM, C: 44.7 µM, A: 22.4 µM, B: 10.2 µM)
